- Tested on: MS2 coat protein
- PROTOCOL: apparent KD of MS2 coat protein; designed switch direction (-1 OFF switch, 1 ON switch): 1; higher = weaker reporter binding
- STATED_CONDITIONS: input ligand: none
# if value of apparent KD of MS2 coat protein reaches 80 nM, tag 1; if it stays below, tag -1

GCGAAGAGGUAAGGAUAUGCAUGGCGGAGACAUGAGGAUCACCCAUGUUGGAGACGAAAUCUAGGGUAGAAGGUACCAGGAAGC [AK SSNG2-V2-12] (Eterna round: R96, puzzle: Same State NG 2); -1

q: Given the entry UGUUGUAUUACAGGAUAUCUAUUGUUUUUAGUUAGAGAAGGGUAUUCACAUGAGGAUCACCCAUGUAUAUACGAGGAAGUUGUG [JMF's solution 82] (Eterna round: R96, puzzle: Same State NG 1) , answer whether its apparent KD of MS2 coat protein meets or surpasses 80 nM.
a: -1

q: Same again, this time with CUGACAUGUCAAGGAUAUCACGUCGAUUAGACGUGAGAAGGUGAUCUACACAUGAGGAUCACCCAUGUGUUACGUGGGAGUCAG [Brourd's SSNG1/1-A2 mod 19] (Eterna round: R96, puzzle: Same State NG 1)
a: 1

q: Another sequence to check: GCUAGGAAAUAAGCCAACAUGAGGAUCACCCAUGUAUGUUGGUAGGAUAUCGUAUGCAAAGCAUACGAGAAGGGCUAACCUAGC [Mat - Same State NG 3 - JL Mod - D71] (Eterna round: R96, puzzle: Same State NG 3)
a: -1

q: Could you do the same for AAAAGAAACAUGUACCUGAGUACAUGAAAACAUGAGGAUCACCCAUGUAAUAAGUGGGUGUUUUGUCUUUGUCUUAU [JL pocket 34, mod 5] (Eterna round: R96, puzzle: Sensor for hsa-mir-208a) , please?
a: -1

q: Same read-out for GCCGGACCGGAAGGAUAUGUUCCCGGUGCAGCGGGAGACAUGAGGAUCACCCAUGUACUAUAACGACAGAAGGUCCAACCAGCG [Eternabot solution 21] (Eterna round: R96, puzzle: Same State NG 2) ?
a: -1

q: What would you report for UUGGUUGUCGUAGGAUAUGUAGGAUAUUCCUACAUGAGGAUCACCCAUGUUCGCAUGGAAGAAGGACAGAAGGACGAUGACCAU [pwkr ssNG2 2FMN + 1F5.20] (Eterna round: R96, puzzle: Same State NG 2) ?
a: 1
